The entries below pair compounds with IC50 values for UniProt:P30559, as found in several publications.
Sequence (P30559 whole entry): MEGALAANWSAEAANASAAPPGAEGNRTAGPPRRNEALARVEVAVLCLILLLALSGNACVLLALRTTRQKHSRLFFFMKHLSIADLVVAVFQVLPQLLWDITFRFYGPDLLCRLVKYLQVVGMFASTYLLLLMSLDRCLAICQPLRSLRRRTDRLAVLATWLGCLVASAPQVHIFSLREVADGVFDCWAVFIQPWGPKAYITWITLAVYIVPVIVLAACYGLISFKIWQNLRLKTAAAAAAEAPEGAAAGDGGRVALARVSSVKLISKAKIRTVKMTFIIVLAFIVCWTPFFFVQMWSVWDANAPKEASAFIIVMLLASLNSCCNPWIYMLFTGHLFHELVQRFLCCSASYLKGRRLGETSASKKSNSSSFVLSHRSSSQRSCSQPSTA

{"entry smiles": "COc1ccccc1-c1ccc(C(=O)N2Cc3ccc(C(=O)N4CCCN(C)CC4)n3Cc3ccccc32)cc1", "IC50": "4.5 nM"}
{"entry smiles": "Cc1cc(C(=O)N2Cc3ccc(C(=O)N4CCN(C[C@@H](O)CO)CC4)n3Cc3ccccc32)ccc1-c1ccccc1C(F)(F)F", "IC50": "25.1 nM"}
{"entry smiles": "Cc1cc(C(=O)N2Cc3ccc(C(=O)N(C)C[C@H](O)[C@H]4OC(=O)O[C@@H]4[C@H](O)CO)n3Cc3ccccc32)ccc1C1=CCCCC1", "IC50": "0.96 nM"}
{"entry smiles": "COc1cccc(-c2cc(OC)c(C(=O)N3Cc4ccc(C(=O)N(C)CCN(C)C)n4Cc4ccccc43)cc2Cl)c1", "IC50": "4.63 nM"}
{"entry smiles": "O=C(c1ccc(C2=CCCCC2)cc1)N1Cc2cccn2Cc2ccccc21", "IC50": "48.9 nM"}
{"entry smiles": "NC(=O)c1ccc2n1Cc1ccccc1N(C(=O)c1ccc(C3CCCCC3)cc1)C2", "IC50": "133 nM"}
{"entry smiles": "COc1cccc(-c2cc(OC)c(C(=O)N3Cc4ccc(C(=O)N(C)CCCN(C)C)n4Cc4ccccc43)cc2Cl)c1", "IC50": "2.04 nM"}
{"entry smiles": "O=C(c1ccc2n1Cc1ccccc1N(C(=O)c1ccc(C3CCCCC3)cc1)C2)N1CCC(N2CCCCC2)CC1", "IC50": "19.7 nM"}
{"entry smiles": "COC[C@@H](OC)[C@@H](OC)[C@H](OC)[C@H](CN(C)C(=O)c1ccc2n1Cc1ccccc1N(C(=O)c1ccc(C3=CCCCC3)c(C)c1)C2)OC", "IC50": "13 nM"}
{"entry smiles": "COC(=O)[C@@H](CO)NC(=O)c1ccc2n1Cc1ccccc1N(C(=O)c1ccc(C3=CCCCC3)c(C)c1)C2", "IC50": "47.1 nM"}
{"entry smiles": "COc1ccccc1-c1ccc(C(=O)N2Cc3ccc(C(=O)N4CCN(CCCN(C)C)CC4)n3Cc3ccccc32)cc1", "IC50": "17.8 nM"}
{"entry smiles": "COc1cc(C(=O)N2Cc3ccc(C(=O)N(C)CCCN(C)C)n3Cc3ccccc32)ccc1-c1ccccc1C(F)(F)F", "IC50": "1.7 nM"}
{"entry smiles": "COCCN1CCN(C(=O)c2ccc3n2Cc2ccccc2N(C(=O)c2ccc(-c4ccccc4C(F)(F)F)c(C)c2)C3)CC1", "IC50": "30.7 nM"}
{"entry smiles": "COc1cc(-c2ccccc2C)c(Cl)cc1C(=O)N1Cc2ccc(C(=O)N(C)CCN(C)C)n2Cc2ccccc21", "IC50": "2.31 nM"}
